Listed next: entries and their corresponding koff.
Target: T1, VLP noro antigen derived from the norovirus GII/4, composed by associating 90 dimers of VP1 each including … (norovirus GII/4, UniProt P54635 1-539)
T1 construct: Virus-like particle; also called solid phase VLP
T1 chain: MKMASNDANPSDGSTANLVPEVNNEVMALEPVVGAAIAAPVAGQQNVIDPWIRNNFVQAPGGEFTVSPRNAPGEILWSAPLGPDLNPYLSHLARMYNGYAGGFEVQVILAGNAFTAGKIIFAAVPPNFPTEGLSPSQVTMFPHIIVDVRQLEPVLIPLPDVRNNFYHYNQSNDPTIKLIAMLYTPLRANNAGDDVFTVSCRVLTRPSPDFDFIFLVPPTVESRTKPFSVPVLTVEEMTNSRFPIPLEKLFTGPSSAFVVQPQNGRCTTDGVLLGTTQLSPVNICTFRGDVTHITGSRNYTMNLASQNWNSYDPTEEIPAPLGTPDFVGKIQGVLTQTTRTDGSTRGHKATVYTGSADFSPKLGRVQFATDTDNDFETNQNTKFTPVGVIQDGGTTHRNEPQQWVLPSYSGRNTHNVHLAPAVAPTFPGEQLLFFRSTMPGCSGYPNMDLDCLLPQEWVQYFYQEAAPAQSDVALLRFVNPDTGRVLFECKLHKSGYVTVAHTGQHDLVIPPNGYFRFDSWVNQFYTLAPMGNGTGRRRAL
Test: SPR (T200, CM3), VLP noro antigen immobilized, antibody as analyte
readout-name: koff (s⁻¹)

• dimer antibody (SEQ ID NO: 99) in which the structure domain of SEQ ID NO: 39 and the structure domain of SEQ ID NO: 38 are connected from N to C via a linker (VHH, Single-chain tandem heterodimer of two VHH domains (39 then 38); also called Divalent 99) QLQLVESGGGLVQAGGSLRLSCVASGFPFASSAMAWFRQAPGKEREFVASISYRGITTYYAQPVKGRFTMSRDNAKNTVYLQMNSLKPEDTAVYYCYAKSIWGNAYWGQGTQVTVSPGGGGSGGGASGGGGSQVQLVESGGGVVQTGGSLRLSCAASGSTFSIGAMGWYRQAPGKQRELVATVNRASRTIYADSVRGRFTISRDNAKNLVYLQMNNLKPEDTAVYYCNVIATSASGRGVTSTSWGQGSQVTVSSEPKTPKPQSASAA = 0.000356
• dimer antibody having two of the structural domains each having the amino acid sequence represented by SEQ ID NO: 38 (SEQ ID NO: 97) (VHH, also called Divalent 97) QVQLVESGGGVVQTGGSLRLSCAASGSTFSIGAMGWYRQAPGKQRELVATVNRASRTIYADSVRGRFTISRDNAKNLVYLQMNNLKPEDTAVYYCNVIATSASGRGVTSTSWGQGSQVTVSSGGGGSGGGASGGGGSQVQLVESGGGVVQTGGSLRLSCAASGSTFSIGAMGWYRQAPGKQRELVATVNRASRTIYADSVRGRFTISRDNAKNLVYLQMNNLKPEDTAVYYCNVIATSASGRGVTSTSWGQGSQVTVSSEPKTPKPQSASAA = 0.000302
• dimer antibody (SEQ ID NO: 98) in which the structure domain of SEQ ID NO: 38 and the structure domain of SEQ ID NO: 39 are connected from N to C via a linker (VHH, Single-chain tandem heterodimer of two VHH domains (38 then 39); also called Divalent 98) QVQLVESGGGVVQTGGSLRLSCAASGSTFSIGAMGWYRQAPGKQRELVATVNRASRTIYADSVRGRFTISRDNAKNLVYLQMNNLKPEDTAVYYCNVIATSASGRGVTSTSWGQGSQVTVSSGGGGSGGGASGGGGSQLQLVESGGGLVQAGGSLRLSCVASGFPFASSAMAWFRQAPGKEREFVASISYRGITTYYAQPVKGRFTMSRDNAKNTVYLQMNSLKPEDTAVYYCYAKSIWGNAYWGQGTQVTVSPEPKTPKPQSASAA = 0.00198
• VHH antibody including the amino acid sequence represented by SEQ ID NO: 38 (VHH, Alpaca VHH expressed in E. coli; also called monomer antibody; not shown: C-terminal 3xFlag tag and His tag from the modified pET22b(+) vector) VHH: QVQLVESGGGVVQTGGSLRLSCAASGSTFSIGAMGWYRQAPGKQRELVATVNRASRTIYADSVRGRFTISRDNAKNLVYLQMNNLKPEDTAVYYCNVIATSASGRGVTSTSWGQGSQVTVSS = 0.0214
